target: Kelch-like ECH-associated protein 1 (Homo sapiens); assay: Keap1-Nrf2 protein-protein interaction inhibitors, primary screen, biochemical, fluorescence polarization, single point (AID 504523); conditions: Keap1 Kelch-Nrf2 peptide fluorescence polarization, 1536-well; at 9.4 µM;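 also: human Keap1 Kelch domain with fluorescein labeled Nrf2 9mer peptide probe; higher means more block of Keap1 binding to Nrf2 peptide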
The campaign covered roughly 340,000 compounds. About 490 (0.14%) were called active. Rule as the data show it: active = inhibition above about 12%; inconclusive = no clear call, values can overlap the other calls; inactive = below about 7.3%. This is one part of a sample in which actives are shown more often than they occur.
A correct response names exactly one class from True for active, False for inactive

Answered examples (3):
| Compound | Group |
| --- | --- |
| O=C(CCc1ccccc1)NNC(=O)COc1ccc(Cl)cc1 | False |
| O=C1C(=O)N(CCN2CCOCC2)C(c2ccccn2)/C1=C(/O)c1ccc(Cl)cc1 (stereo unspecified) | False |
| N#Cc1cccc(CSc2ncnc(N)n2)c1 | False |

Check the results log: what was the call for Clc1ccc2c(c1)C1=C(C(c3ccncc3)O2)C(c2ccc(Br)cc2)n2ncnc2N1 (stereo unspecified) ?
False

Check the results log: what was the call for `O=C(CCc1ccccc1)NNc1ccc(F)cc1` ?
True

Check the results log: what was the call for `Cc1ccccc1CNC(=O)CCC(=O)N1Cc2ccccc2Oc2ncccc21` ?
False

Check the results log: what was the call for `COc1ccccc1NC(=O)CSc1nnc(Cn2nnc(-c3ccccc3)n2)n1-c1ccccc1` ?
False

Check the results log: what was the call for `Cc1cc(C)n(-c2nnc(N3CCN(c4ccccc4)CC3)nn2)n1` ?
False
